Provide the reported soluble fraction (log2) of each item.
# assay-text: soluble fraction after stress (log2 fold change); higher = more stays soluble; pooled small domains, quantitative proteomics;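 note: 20 min heating vs room temperature control held 20 min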
# condition-parameters: stress: 75 degC
No unit in the answer, please; the number alone is enough.

Requested field: soluble fraction (log2). Item: HMKDYQGEISVVASGERIDVYLFNYFNLFSRTKIKNHIKNGNILVNENIISPSYILKQNDKIAFNLGAPY
-2.27

Now the sequence HMVVPSNPDELKGSFSLAEVASGYGLEVAAILEKAGWPADTDPNVKMRDAANAIGRDSTDIRNAVKALLKS
0.156

Now the sequence HMSNNLAYSQFLDRVKNKEIRKVEIRGQSIVGYTSNNETFKTYAPLNDPKMYDELLTNDVQVQVDPP
-0.0765

Now the sequence HMTEEDVVIFSGLSDRDLKMVQTELANSGIKYTLPTSGTVSVPNSEIARAQMVLAMAGIPRS
0.246

Now the sequence HMADPAVLIAELFRAMPEKRFSVKNLISATGAETREQKDYVREVVHSLSREGMIEQVAEGKYRLSASE
0.299

Now the sequence HMAQIVNLPRKNVNGASYYYYEVQPKETIYSISRKLGVSGAEIQRHNPSVADGLKIGQVLYFPAEG
-0.0642

Now the sequence HMETWDQAYETIKQNILNLTYPPGMPLTEAKLAEELGMSRSPVRTALRMLQTDGLIVTDYYKSMTVKEI
-1.95

Now the sequence HMLAKRYLVYGSGSLNSAYPDTKNIAYGIDSGKGFFLVGILTENEASKLKLKGYYVIEDFPLDFH
-1.45

Now the sequence HMNMPDVTVEWVKEQQAKFGLTDSDLAKSVNIDNANLARIFNQRGLTKIHKALFYYFFRAYGLQ
-3.33

Now the sequence HMAVVAPLAGSVARVLVADGDEIEAGQVLLVLEAMKMETEITAPKAGKVGAILVGKGDSVQGGQGLR
-0.18

Now the sequence HMHMIDDYLARIGQLIRDARQHRGWTQVQLAEALGTSQSAVNRIERGNQNISLEMIARIGEALGSEIVSLG
-2.24

Now the sequence HMPNNNDIVLDRVSFGYHEKEVLHGIDMTIREGTVNALVGPSGSGKSTIAKLIAGLWDVDGGSISF
0.555

Now the sequence HMNAIYKFVLGMIGKRSGVVTTLPSKKQVEFQANMLAEKFMQNGIDPNALKSPEQVKNVLANIDQ
-1.13

Now the sequence HMSTKYSSNIISLVKGLMEEDQYKDLMGPPLKKEIIKKVESITDTFPYKFDKDDKEFIVKKVLISLRK
-1.77

Now the sequence HMDPTVSGQTGSVVREIRPGVPGEVELSVPLYGIRRWQAMADGILAEGTRVTVIQAEGVRLSVRPV
-1.24

Now the sequence HMNVYEVKFGDTLDEIIKTYLFDIPVKKSILRQAVILANPHAFRRNNPHWMYSDRQLKLPELQDIRRAIF
-0.317

Now the sequence HMKRFSPPSIEEVDSYIREKGYTVDAERFVNFYESKGWYVGKNKMKNWRAAVATWQKEDNKRN
-0.226

Now the sequence HMAMNLQETVLMQLRDLILRGTFEPGQRLSEQPLAERLKASRTPVRSALVTLEQEGLIEASETGKYLVRQ
-0.821

Now the sequence HMGYDSYDADTIPKLKIGSIVEHPKFGEGSIISKAGAEVTIAFKIKGVKKINLEYTSIKVLK
-1.67

Now the sequence HMAVSTFGRITASSLNVRSGPSTDHEKVGSLAAGRVVELLEESDGWYRIENGYISTEYVTIVDPSQ
-0.715

Now the sequence HMGQAEEVRYSTFLDEVRNGRIEQVVLQGEHIIGTRKDKTVFSVFNPETDYTALIGTLSKSGVTIEGRP
0.283

Now the sequence HMKMATITKRTNPSGAVVYRAQVRVKREGYPPYSESRTFSKKSLATEWAKRREFEIETNPDLLFN
-1.76

Now the sequence HMNDAEEKAEAIEGVKNFMANMEKTDIDFKSKESVLLEQVEEIRKNYPVAQWPVIVKQLYNNIGRL
-0.0997

Now the sequence HMTKLSPKEKSILHIIGDNAGIKSGQIAKRLDIPSPTVKRILSDLVSQNLIEKFGTGPGTNYSI
-0.0131

Now the sequence HMETLETYTSRLRQLEDITNNFKGVDKSFAIQAGREIRVMVVPEQVSDADMILMARDISKAIEAELEYPGQ
0.0937

Now the sequence HMSVDDVALRLEFGPSDAEALAFVHRHGAILSETTDRDTGVVSVHVRLSEADAGRFNQRYGV
-0.0968

Now the sequence HMALLSNTVDELHAGMRLDSYLFESGLYPSRSFAVKQIEAGKVFLNGDAVTKKTLVSNGDFIVYELEE
-0.854

Now the sequence HMTGINMSYEEYKAMADIIVPLIKAGHSPYHIVTNHPELNISEKTLYNYIENGIFREFGLLDINL
-1.59

Now the sequence HMTQSGLTQWEFNMLRQALIEMLGEKPGSVFELARLLPLEQEKNVQALRFLLDHDDQFHLKDEYISFVKRT
-2.34

Now the sequence HMTKYVEGQKYVFEFRDGTITIGTYLRTGEGNIYIKDLSGEDIYIPKIMIAQIHLATDDNVKGDEFWF
-1.26

Now the sequence HMTVDIADALRVLGLSDAPDWSDVRAAHRRAIVRTHPDAGGSAGDAARVNQAFDLLRKISGNGERPIPG
0.012

Now the sequence HMGGRTITVGISENMTVKDIAQMLEEKGLIEDARLFVVQELLSAYHKEIKPGIYDLSTDMTAAQMLEIMS
-0.443

Now the sequence HMTAIKAGDLVKITGTKYYGGQTIPGWVKNQNWYVQEVSGDRAVINKNESGTNAIMSPIRVSDLTPVS
0.036

----------
Provide the reported soluble fraction (log2) of each item.
# assay-text: soluble fraction after stress (log2 fold change); higher = more stays soluble; pooled small domains, quantitative proteomics
# condition-parameters: stress: 75 degC
No unit in the answer, please; the number alone is enough.

Requested field: soluble fraction (log2). Item: HMSVIKERLTEFLTYKGIGQIKFAEAAGLSRGFVNVLGDGISSKSLNKISQAFPELNTLWLTTGEGEML
-1.72

Now the sequence HMRIVQTDYRNFLSQVESGAVRSVQIDETQIRYTALDSGGKEIVYNTGKVDDPGLVNRLYDAGVEFSQVIP
-0.132

Now the sequence HMTALSAREHEVLQLITRGYTADEIAAMLQISRHTALTYVRRIYSKLKVNSKAEAIFEVRQR
-0.926

Now the sequence HMSSDEEQLATLTRLLQKQEQIIQTLGPRNPMVSLQQYANTITKVIEMAGFKDTSQFINSQIP
0.0951

Now the sequence HMGDITIPDLQGMSFDQAREKLKALGLSIGKISYTSDTSKDDGVVISQGLQAGGKASKGATVDITINET
0.332

Now the sequence HMLEAKQIQDNWESLIKLIEDNFTGERKENLLKMYTHFQDRMMFAPASSKEHFHNAFPGGYVEHVL
-0.369

Now the sequence HMRSHLSANLQRLRHIAGLTQKDLALAANLPRATLASLEQGEANPRLDTLLAVASALQVGLDELIAAP
-1.32

Now the sequence HMNKMIIELGEKLKALRTENHLRQDQVARLVNVEKSSISMYETGMRQPSYTTLVRLADVFNVTTDYLLGRK
-2.37

----------
Provide the reported soluble fraction (log2) of each item.
# assay-text: soluble fraction after stress (log2 fold change); higher = more stays soluble; pooled small domains, quantitative proteomics
# condition-parameters: stress: 75 degC
No unit in the answer, please; the number alone is enough.

Requested field: soluble fraction (log2). Item: HMALDSQEVGYNIEARGARPVVAQLGKAGQFSAVENSIRLGDDNWIALAPKLAGGGNAGFTAGIKSALS
-0.0514

Now the sequence HMGIEIKLLMSFMTDSGRKVSLFVTDPREDVTETEIKQVMDLIIEKNIFAPNGEDIVSAKEAKIVQT
-1.35

Now the sequence HMISEAEGTILQLLKEADGTLPFTYKSDADEIKKVFGMSKKNFKRTLTELIEAKKIQLLDDAIVL
-0.632

Now the sequence HMEVNLEPLIALLRKHRDLDLSGYSKSTLGRRITYFMGLNKISSIDELGRRLAEDDLLFQEFLDKLT
-0.264

Now the sequence HMKLSIGGTIEKLRRNKGLSHQQLANALGVTPDTVEKWEINAAYPDITLLSPIARLLGTTLDALLMF
-1.77

Now the sequence HMEMVSMPGLTGSTLEFATKTLTENELKYEVVYIVDASAESGLIIRTYPTEGEMVSKKTSTIYLYIKE
-3.4

Now the sequence HMKMLEINDNDSVGLKNLKTQYNHNQKVIENFQLEINKVINDGELPDKYLLDGMEKYQKLNMQIMSTIEKQ
0.0503

Now the sequence HMAVELPLETTLDIVRKYARNQEVDRRAERVEAVSAEALQTLAPRGTKLASEIVEQAKTQVLEELA
0.476

The reported measurements were obtained from the domain aggregation screens of Martell et al. (2025).
